Molecular target: UniProtKB A0A2K5ULY1
Experiment: Inhibition of cortisol synthesis (cynomolgus adrenal mitochondria, cortisol by mass spectrometry)
Format: biochemical, cynomolgus monkey
Conditions: 11-deoxycortisol substrate, 150 units CYP11B1; read-out: Cortisol Inhibition IC50
measured-endpoint: pIC50
Give bare numbers, as −log10 of the molar value.

Please state, for each entry, its recorded pIC50.
1. CC1(C)CC(=O)c2c(ncn2-c2cccc(C#N)c2)C1
2. CC1(C)CC(=O)c2c(ncn2-c2ccc(F)c(F)c2)C1
3. N#Cc1ccc(-n2cnc3c2C(=O)CC2(CCOCC2)C3)cc1
4. CC1(C)CC(=O)c2c(ncn2-c2ccccc2)C1
5. CC1(C)CC(=O)c2c(ncn2C2CCc3ccccc3C2)C1 (stereo not shown)
6. CC1(C)CC(=O)c2c(ncn2Cc2ccc(C(=O)NCCS(C)(=O)=O)cc2)C1
7. Cc1ccc(-n2cnc3c2C(=O)CC(C)(C)C3)cc1

Output:
[5.00, 6.19, 4.85, 4.92, 4.54, 5.21, 5.36]

====

Target: aldosterone synthase (CYP11B2) (Macaca fascicularis, UniProt A0A2K5UPL9)
Sequence (A0A2K5UPL9 1-503): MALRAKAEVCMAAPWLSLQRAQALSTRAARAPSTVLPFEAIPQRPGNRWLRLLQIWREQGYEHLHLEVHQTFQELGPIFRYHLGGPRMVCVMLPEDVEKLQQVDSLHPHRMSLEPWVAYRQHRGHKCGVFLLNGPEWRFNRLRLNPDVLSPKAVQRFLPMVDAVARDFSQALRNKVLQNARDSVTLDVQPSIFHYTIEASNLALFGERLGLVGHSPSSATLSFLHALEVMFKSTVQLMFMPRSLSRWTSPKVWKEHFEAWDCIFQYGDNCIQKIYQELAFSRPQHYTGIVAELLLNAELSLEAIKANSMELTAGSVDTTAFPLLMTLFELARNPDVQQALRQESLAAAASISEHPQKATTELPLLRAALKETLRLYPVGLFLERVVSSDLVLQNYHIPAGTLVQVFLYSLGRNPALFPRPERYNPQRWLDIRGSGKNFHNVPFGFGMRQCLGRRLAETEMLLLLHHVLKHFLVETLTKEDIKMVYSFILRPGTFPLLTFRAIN
Test: Inhibition of aldosterone synthase (cynomolgus adrenal mitochondria, aldosterone by mass spectrometry)
Type: biochemical, cynomolgus monkey
Settings: 2 μM corticosterone substrate, 50 units CYP11B2, 90 min, 37° C.; read-out: Aldosterone Inhibition IC50
measured-endpoint: log10 IC50 (log10 of the value in nM)
Annotation: log10 of IC50, nM basis.

Example entries begin here.
{"compound": "COC(=O)c1ccc(Cn2cnc3c2C(=O)CC(C)(C)C3)cc1 [C-ACZ]", "log10 IC50": 1.53}
{"compound": "CC1(C)CC(=O)c2c(ncn2C2CC3(COC3)C2)C1 [C-ACT]", "log10 IC50": 2.89}
{"compound": "CC1(C)CC(=O)c2c(ncn2C2CC(c3ccccc3)C2)C1 (stereo not shown) [C-ACU]", "log10 IC50": 2.04}

Please state, for each entry, its recorded log10 IC50.
1. CN1C[C@@H](n2cnc3c2C(=O)CC(C)(C)C3)CCC1=O [C-ACR]
2. O=C1CCCc2ncn(-c3ccc4c(c3)OCCO4)c21 [C-AAI]
3. CN1Cc2cc(-n3cnc4c3C(=O)CCC4)ccc2CC1=O [C-AAC]
4. O=C1CCCc2ncn(-c3ccc4c(c3)OCCCO4)c21 [C-AAJ]
5. N#Cc1ccc(-n2cnc3c2C(=O)CC2(CCOCC2)C3)cc1 [C-AAS]
6. CC(C)Oc1ccc(-n2cnc3c2C(=O)CC(C)(C)C3)cc1 [C-ABQ]
7. CC(C)Oc1ccc(-n2cnc3c2C(=O)CC(C)(C)C3)cc1Cl [C-ABJ]
8. O=C1CCCc2ncn(-c3ccc4c(c3)CCCN4)c21 [C-ABB]

Output:
1. 2.89
2. 2.20
3. 2.86
4. 2.64
5. 2.38
6. 2.45
7. 1.88
8. 2.40

Please state, for each entry, its recorded log10 IC50.
1. CC1(C)CC(=O)c2c(ncn2C2CCc3ccccc32)C1 (stereo not shown) [C-ACQ]
2. CC1(C)CC(=O)c2c(ncn2-c2cccc(Cl)c2)C1 [C-ABK]
3. CC1(C)CC(=O)c2c(ncn2-c2ccc(F)c(Cl)c2)C1 [C-ABI]
4. CC1(C)CC(=O)c2c(ncn2C2CCCCC2)C1 [C-ACK]
5. Cn1ncc2ccc(-n3cnc4c3C(=O)CCC4)cc21 [C-AAH]
6. CC1(C)CC(=O)c2c(ncn2C2CCCCc3ccccc32)C1 (stereo not shown) [C-ACW]

Output:
[2.34, 1.28, 0.68, 2.41, 1.68, 1.38]

Please state, for each entry, its recorded log10 IC50.
1. CN(C)C(=O)[C@H]1CC(=O)c2c(ncn2-c2ccc(C#N)c(Cl)c2)C1 [C-AEE]
2. CC1(C)CC(=O)c2c(ncn2Cc2ccccc2)C1 [C-ADR]
3. Cn1ncc2c1CC(n1cnc3c1C(=O)CCC3)CC2 (stereo not shown) [C-AEF]
4. COc1ccc(-n2cnc3c2C(=O)CC(C)(C)C3)cc1 [C-ABR]
5. O=C1CCCc2ncn(-c3ccc4c(c3)COC4)c21 [C-AAB]

Output:
[2.28, 1.99, 2.28, 2.11, 1.93]

Provenance of the data: patent US10858342B2
